Test system: Human adenovirus D37
Method Notes: Inhibition of 35S-labeled Human adenovirus 37 1477 virion binding to human HCE cells at 1:9 compound to PDA ratio formulation prepared by probe sonication method after 1 hr by scintillation counting
Assay type: functional, organism-based
Reported Conditions: Human mastadenovirus D, 1477, HCE
Test Readout: IC50 (nM)
Give just the numeric value; nM need not be written.

Incoming: // IC50 lookup, key: CCCCCCCCCCCCC#CC#CCCCCCCCCC(=O)NCCOCCOCCOCCOCCOCCC(=O)NCCCCCO[C@]1(C(=O)O)C[C@H](O)[C@@H](NC(C)=O)[C@H]([C@H](O)[C@H](O)CO)O1
Outgoing: 900
